- study-system: T1, mouse tissue factor pathway inhibitor (TFPI) (mouse, UniProt O54819 29-289, limits assumed)
- T1 construct: bought; also called mTFPI; murine TFPI
- T1 sequence (looked up): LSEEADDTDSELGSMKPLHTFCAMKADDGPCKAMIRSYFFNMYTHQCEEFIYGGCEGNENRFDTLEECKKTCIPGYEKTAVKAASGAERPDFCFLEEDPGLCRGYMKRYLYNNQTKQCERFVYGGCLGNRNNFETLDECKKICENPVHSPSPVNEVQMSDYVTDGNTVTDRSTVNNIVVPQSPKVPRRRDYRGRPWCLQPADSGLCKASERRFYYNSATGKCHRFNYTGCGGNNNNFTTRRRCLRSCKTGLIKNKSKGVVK
- assay-summary: competitive ELISA
reported-metric: variant/HC_D62R

1) 4B7 HC N32D+D62Q+Y112D/LC F31I+D33F+N35I+L42Q (Fab, V domains shown) VH: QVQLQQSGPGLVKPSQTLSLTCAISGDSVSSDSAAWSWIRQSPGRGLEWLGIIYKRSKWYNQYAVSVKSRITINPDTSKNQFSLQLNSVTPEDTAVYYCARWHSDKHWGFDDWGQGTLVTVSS VL: DIVMTQSPLSLPVTPGEPASISCRSSQSLVISFGITYLNWYQQKPGQSPQLLIYKGSNRASGVPDRFSGSGSGTDFTLKISRVEAEDVGVYYCQQYDSYPLTFGQGTKVEIKR    16.7 ratio
2) 4B7 HC N32D+D62R+H107M+Y112D/LC D33R+N35T (Fab, V domains shown) VH: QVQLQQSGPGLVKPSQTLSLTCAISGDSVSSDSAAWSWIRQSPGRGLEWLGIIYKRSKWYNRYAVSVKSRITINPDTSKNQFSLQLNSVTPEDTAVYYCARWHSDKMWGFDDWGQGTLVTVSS VL: DIVMTQSPLSLPVTPGEPASISCRSSQSLVFSRGTTYLNWYLQKPGQSPQLLIYKGSNRASGVPDRFSGSGSGTDFTLKISRVEAEDVGVYYCQQYDSYPLTFGQGTKVEIKR    29.3 ratio
3) B2.0 (4B7 HC N32D+D62R+Y112D/LC S32R+D33F+N35I+D97T) (Fab, V domains shown) VH: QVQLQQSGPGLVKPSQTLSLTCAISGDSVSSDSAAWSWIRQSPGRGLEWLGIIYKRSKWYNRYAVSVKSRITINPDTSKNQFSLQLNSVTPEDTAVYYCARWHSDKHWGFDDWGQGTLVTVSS VL: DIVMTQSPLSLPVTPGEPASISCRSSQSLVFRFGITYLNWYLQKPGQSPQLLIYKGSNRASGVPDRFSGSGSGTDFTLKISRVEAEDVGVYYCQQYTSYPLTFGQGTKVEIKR    40 ratio
4) 4B7 HC N32D+D62R+H107M+Y112D/LC F31M+D33R (Fab, V domains shown) VH: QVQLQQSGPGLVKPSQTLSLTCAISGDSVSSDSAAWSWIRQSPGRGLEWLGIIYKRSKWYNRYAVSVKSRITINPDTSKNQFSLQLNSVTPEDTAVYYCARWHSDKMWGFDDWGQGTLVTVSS VL: DIVMTQSPLSLPVTPGEPASISCRSSQSLVMSRGNTYLNWYLQKPGQSPQLLIYKGSNRASGVPDRFSGSGSGTDFTLKISRVEAEDVGVYYCQQYDSYPLTFGQGTKVEIKR    24.6 ratio
5) 4B7 HC N32D+D62R+Y112D/LC S32R+D33F+N35I+Q50R+D97T (Fab, V domains shown) VH: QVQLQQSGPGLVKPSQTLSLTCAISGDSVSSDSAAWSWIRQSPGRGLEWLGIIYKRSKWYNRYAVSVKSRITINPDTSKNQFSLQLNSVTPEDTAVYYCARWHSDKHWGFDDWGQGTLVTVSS VL: DIVMTQSPLSLPVTPGEPASISCRSSQSLVFRFGITYLNWYLQKPGQSPRLLIYKGSNRASGVPDRFSGSGSGTDFTLKISRVEAEDVGVYYCQQYTSYPLTFGQGTKVEIKR    39.4 ratio

Name the recorded variant/HC_D62R of the item 4B7 HC N32D+D62R+H107M+Y112D/LC F31I+S32R+N35I+D97T (Fab, V domains shown) VH: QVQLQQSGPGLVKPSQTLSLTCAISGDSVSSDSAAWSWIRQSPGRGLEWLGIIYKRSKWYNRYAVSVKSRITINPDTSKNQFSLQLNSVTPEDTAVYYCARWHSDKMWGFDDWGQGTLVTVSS VL: DIVMTQSPLSLPVTPGEPASISCRSSQSLVIRDGITYLNWYLQKPGQSPQLLIYKGSNRASGVPDRFSGSGSGTDFTLKISRVEAEDVGVYYCQQYTSYPLTFGQGTKVEIKR in your answer.
8.7 ratio

Name the recorded variant/HC_D62R of the item 4B7 HC N32D+D62Q+Y112D/LC F31M+S32R+D33F+N35I (Fab, V domains shown) VH: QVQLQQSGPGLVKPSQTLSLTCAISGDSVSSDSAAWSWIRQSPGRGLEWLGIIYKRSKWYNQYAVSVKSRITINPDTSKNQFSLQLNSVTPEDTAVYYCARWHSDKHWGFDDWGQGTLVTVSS VL: DIVMTQSPLSLPVTPGEPASISCRSSQSLVMRFGITYLNWYLQKPGQSPQLLIYKGSNRASGVPDRFSGSGSGTDFTLKISRVEAEDVGVYYCQQYDSYPLTFGQGTKVEIKR in your answer.
15.8 ratio

Name the recorded variant/HC_D62R of the item 4B7 HC N32D+D62R+Y112D/LC D33F+N35I+D97T (Fab, V domains shown) VH: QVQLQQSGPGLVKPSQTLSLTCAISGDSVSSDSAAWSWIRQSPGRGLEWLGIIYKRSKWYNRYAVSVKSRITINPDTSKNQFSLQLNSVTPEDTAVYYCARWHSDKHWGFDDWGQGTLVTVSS VL: DIVMTQSPLSLPVTPGEPASISCRSSQSLVFSFGITYLNWYLQKPGQSPQLLIYKGSNRASGVPDRFSGSGSGTDFTLKISRVEAEDVGVYYCQQYTSYPLTFGQGTKVEIKR in your answer.
15.9 ratio

Name the recorded variant/HC_D62R of the item 4B7 HC N32D+D62Q+Y112D/LC V30L+F31I+D33F+N35I (Fab, V domains shown) VH: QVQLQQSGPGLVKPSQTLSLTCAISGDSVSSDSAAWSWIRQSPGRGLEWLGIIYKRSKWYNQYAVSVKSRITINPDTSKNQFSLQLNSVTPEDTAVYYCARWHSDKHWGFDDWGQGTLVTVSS VL: DIVMTQSPLSLPVTPGEPASISCRSSQSLLISFGITYLNWYLQKPGQSPQLLIYKGSNRASGVPDRFSGSGSGTDFTLKISRVEAEDVGVYYCQQYDSYPLTFGQGTKVEIKR in your answer.
24.6 ratio

Name the recorded variant/HC_D62R of the item 4B7 HC N32D+D62Q+Y112D/LC F31I+D33F+N35I+D97T (Fab, V domains shown) VH: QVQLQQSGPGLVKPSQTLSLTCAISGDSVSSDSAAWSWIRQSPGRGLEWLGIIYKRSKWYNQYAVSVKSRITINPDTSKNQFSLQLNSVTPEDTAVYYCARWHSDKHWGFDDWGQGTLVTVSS VL: DIVMTQSPLSLPVTPGEPASISCRSSQSLVISFGITYLNWYLQKPGQSPQLLIYKGSNRASGVPDRFSGSGSGTDFTLKISRVEAEDVGVYYCQQYTSYPLTFGQGTKVEIKR in your answer.
4.6 ratio

Name the recorded variant/HC_D62R of the item 4B7 HC N32D+D62R+Y112D/LC F31M+S32R+D33R+N35I (Fab, V domains shown) VH: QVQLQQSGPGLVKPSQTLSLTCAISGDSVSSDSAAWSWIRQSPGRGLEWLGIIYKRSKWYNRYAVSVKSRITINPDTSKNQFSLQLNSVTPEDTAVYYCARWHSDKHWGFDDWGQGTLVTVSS VL: DIVMTQSPLSLPVTPGEPASISCRSSQSLVMRRGITYLNWYLQKPGQSPQLLIYKGSNRASGVPDRFSGSGSGTDFTLKISRVEAEDVGVYYCQQYDSYPLTFGQGTKVEIKR in your answer.
11.2 ratio

Reference for the values: patent USRE47150
